Tested on: human spermatozoa
MEASUREMENT DESCRIPTION: progressively motile sperm, percent change vs DMSO (non-capacitating); higher = more of the measured sperm population than DMSO, for viability, fewer PI-positive (dead) cells than DMSO; extreme values may be limits of the assay
RUN PARAMETERS: incubation time: 6h incubation, 29.9 µM
Counter-ions that a name gives are not always drawn.
OBSERVATION TYPE: progressively motile sperm (%)
Give bare numbers, in %.

# annotated cases, reported progressively motile sperm shown
COMPOUND | OBSERVATION TYPE | UNIT ABBREV | RECORDED VALUE
NC(=O)c1cc(-c2ccc(S(=O)(=O)[C@H]3CC[C@H](Nc4ccc(C(F)(F)F)cn4)CC3)cc2)ccn1 | progressively motile sperm | % | -18.5
CCS(=O)(=O)Nc1ccc2c(c1)/C(=C(/Nc1ccc(CN3CCCCC3)cc1)c1ccccc1)C(=O)N2 [Hesperadin hydrochloride] | progressively motile sperm | % | -55.4
CC(C)Cn1c(=O)n(C)c(=O)c2[nH]cnc21 | progressively motile sperm | % | 61.2

Batch request: progressively motile sperm for each of the following compounds.
1. CCOc1ccccc1OCCN[C@H](C)Cc1ccc(OC)c(S(N)(=O)=O)c1
2. CC(C)C(C(=O)OC(C#N)c1cccc(Oc2ccccc2)c1)c1ccc(Cl)cc1 (configuration not stated) [Fenvalerate]
3. Oc1c(Cl)cc(Cl)cc1Sc1cc(Cl)cc(Cl)c1O
4. CCc1cc(Nc2nccc(-c3c(-c4ccc(OC)c(C(=O)Nc5c(F)cccc5F)c4)nc4ccccn34)n2)c(OC)cc1N1CCC(N2CCN(S(C)(=O)=O)CC2)CC1

**A:**
1: 26.5; 2: 5.45; 3: -30.7; 4: 33.6

* * *

Test system: human spermatozoa
MEASUREMENT DESCRIPTION: acrosome-reacted (PNA+) sperm after agonist cocktail, percent change vs DMSO (capacitating); higher = more of the measured sperm population than DMSO, for viability, fewer PI-positive (dead) cells than DMSO
RUN PARAMETERS: incubation time: 3h; 29.9 µM; capacitating + agonist cocktail 1h
Counter-ions that a name gives are not always drawn.
OBSERVATION TYPE: acrosome-reacted (%)
Give bare numbers, in %.

# annotated cases, reported acrosome-reacted shown
COMPOUND | UNIT ABBREV | acrosome-reacted
CCCCC(CC)C/N=C(\N)N/C(N)=N/CCCCCC/N=C(\N)N/C(N)=N/CC(CC)CCCC (stereo unspecified) [Alexidine dihydrochloride] | % | 214
COC(=O)[C@]1(C)CC[C@]2(C)CC[C@]3(C)C4=CC=C5C(=CC(=O)C(O)=C5C)[C@]4(C)CC[C@@]3(C)[C@@H]2C1 [Pristimerin] | % | -57.5
Nc1nonc1C(=O)c1cccc(OCc2nc3ccccc3[nH]2)c1 [ASI-8] | % | -14.9
CN(c1ccccc1CNc1nc(Nc2ccc3c(c2)CC(=O)N3)ncc1C(F)(F)F)S(C)(=O)=O | % | -8.83
COc1ccc(CCCN2CCC(COC(c3ccccc3)c3ccccc3)CC2)cc1 | % | 18.6

Batch request: acrosome-reacted for each of the following compounds.
1. Cc1sc2c(c1C)C(c1ccc(Cl)cc1)=N[C@@H](CC(=O)OC(C)(C)C)c1nnc(C)n1-2 [JQ1]
2. CC(C)(O)c1ccn2c(-c3ccc(F)c(-c4ccc(F)cc4C#N)c3)cnc2c1F [TP 003]
3. CCOCc1nc2c(N)nc3ccccc3c2n1CC(C)(C)O [Resiquimod]
4. CCCCC/C=C\C/C=C\C/C=C\C/C=C\CCCC(=O)NCCO [Anandamide]
5. O=c1sn(-c2cccc3ccccc23)c(=O)n1Cc1ccccc1 [Tideglusib]
6. [O]=[V]([O-])([O-])[O-] [Sodium orthovanadate]

**A:**
40.2
116
-0.339
-3.7
6.56
1.67

* * *

Test system: human spermatozoa
MEASUREMENT DESCRIPTION: total motile sperm, percent change vs DMSO (non-capacitating); higher = more of the measured sperm population than DMSO, for viability, fewer PI-positive (dead) cells than DMSO
RUN PARAMETERS: incubation time: 6h incubation, 9.99 µM
Give measured total motile sperm for each item. Keep answers brief.
Numbers only, in %.

# annotated cases, reported total motile sperm shown
COMPOUND | UNIT ABBREV | total motile sperm
NC(=O)c1cccnc1 [Nicotinamid] | % | -0.499
C=C[C@@]1(C)CC(=O)[C@@]2(O)[C@](C)(O1)[C@@H](OC(C)=O)[C@@H](O)C1C(C)(C)CC[C@H](O)[C@@]12C (stereo partly drawn) [Forskolin] | % | -0.697
COC(=O)c1c(C)[nH]c(C)c1C(=O)c1ccccc1Cc1ccccc1 | % | -5.32
COc1cc(SC)ccc1C(=O)N1CCC(Cc2ccccc2)CC1 [JX 401] | % | 0.862
CC(C)Cn1cnc2c(N)nc3ccccc3c21 [Imiquimod] | % | -4.54

Batch request: total motile sperm for each of the following compounds.
1. [O]=[V]([O-])([O-])[O-] [Sodium orthovanadate]
2. c1cnc2c(c1)ccc1cccnc12 [Phenanthroline]

**A:**
1. 8.42
2. -1.8

* * *

Test system: human spermatozoa
MEASUREMENT DESCRIPTION: acrosome-reacted (PNA+) sperm after agonist cocktail, percent change vs DMSO (capacitating); higher = more of the measured sperm population than DMSO, for viability, fewer PI-positive (dead) cells than DMSO
RUN PARAMETERS: incubation time: 3h; 29.9 µM; capacitating + agonist cocktail 1h
OBSERVATION TYPE: acrosome-reacted (%)
Give bare numbers, in %.

COMPOUND | RECORDED VALUE
[O-][S+](c1ccccc1)c1ccc2nnnn2n1 (centres undefined) [Ro 106-9920] | 142
COc1cc(N2CCOCC2)ccc1Nc1ncc(F)c(Nc2ccccc2NS(C)(=O)=O)n1 | -26.8
CCc1cc(Nc2nccc(-c3c(-c4ccc(OC)c(C(=O)Nc5c(F)cccc5F)c4)nc4ccccn34)n2)c(OC)cc1N1CCC(N2CCN(S(C)(=O)=O)CC2)CC1 | 2.76

Entry COc1cc(C)c2c(Oc3cccc(C(F)(F)F)c3)c(OC)cc(NC(C)CCCN)c2n1 (centres undefined) [Tafenoquine] under human spermatozoa had acrosome-reacted of 161

* * *

Test system: HepG2
MEASUREMENT DESCRIPTION: HepG2 toxicity (resazurin), effect normalised to DMSO (DMSO = 0); higher = more features changed / larger toxic effect
RUN PARAMETERS: incubation time: 70h incubation; 10 µM
Structures can show the parent of a compound that is named as a salt.
OBSERVATION TYPE: HepG2 toxicity (%)
Give bare numbers, in %.

# annotated cases, reported HepG2 toxicity shown
COMPOUND | HepG2 toxicity / %
CCCCCCCCCCCCCCCCOCC(COCC(F)(F)F)OP(=O)([O-])OC (configuration not stated) | -0.425
NC(=O)c1cc(-c2ccc(S(=O)(=O)[C@H]3CC[C@H](Nc4ccc(C(F)(F)F)cn4)CC3)cc2)ccn1 | 93.6
[O-][S+](c1ccccc1)c1ccc2nnnn2n1 (configuration not stated) | 103
NC(=O)Nc1cc(-c2cccc(F)c2)sc1C(=O)N[C@H]1CCCNC1 [AZD 7762 hydrochloride] | 101
Cc1[nH]c(/C=C2\C(=O)Nc3ccc(S(=O)(=O)Cc4c(Cl)cccc4Cl)cc32)c(C)c1C(=O)N1CCC[C@@H]1CN1CCCC1 | 102
CCc1cc(Nc2nccc(-c3c(-c4ccc(OC)c(C(=O)Nc5c(F)cccc5F)c4)nc4ccccn34)n2)c(OC)cc1N1CCC(N2CCN(S(C)(=O)=O)CC2)CC1 | 3.43

Okay, next one:
The value of HepG2 toxicity measured for the compound Nc1ccc(-c2ccc3ncc4ccc(=O)n(-c5cccc(C(F)(F)F)c5)c4c3c2)cn1 turned out to be 97.2

* * *

System: human spermatozoa
MEASUREMENT DESCRIPTION: total motile sperm, percent change vs DMSO (non-capacitating); higher = more of the measured sperm population than DMSO, for viability, fewer PI-positive (dead) cells than DMSO
RUN PARAMETERS: incubation time: 10min incubation, 9.99 µM
Structures can show the parent of a compound that is named as a salt.
OBSERVATION TYPE: total motile sperm (%)
One number for each entry, in %.

# annotated cases, reported total motile sperm shown
COMPOUND | OBSERVATION TYPE | RECORDED VALUE
N=C(N)Nc1nc2ccccc2[nH]1 | total motile sperm | 0.879
CCOC(=O)CSc1nc(=O)c(NCC(=O)OC)n[nH]1 | total motile sperm | -1.27
Clc1ccc(C(OCCN2CCCCC2)c2ccccc2)cc1 (stereo unspecified) [Cloperastine hydrochloride] | total motile sperm | 1.61
CC(C)(C)c1ccc(S(=O)(=O)Nc2cnc3[nH]c(C(=O)N[C@H]4CCC[C@H]4O)c(-c4ccccc4)c3c2)cc1 | total motile sperm | -3.11
CC(C)[C@H]1c2ccc(F)cc2CC[C@@]1(CCN(C)CCCc1nc2ccccc2[nH]1)OC(=O)C1CC1 [NNC 55-0396 dihydrochloride] | total motile sperm | 0.104

Batch request: total motile sperm for each of the following compounds.
1. CCN(CC)C(=S)SSC(=S)N(CC)CC
2. COc1ccc2nc([S@@+]([O-])Cc3ncc(C)c(OC)c3C)[nH]c2c1
3. Oc1c(Cl)cc(Cl)c(Cl)c1Cc1c(O)c(Cl)cc(Cl)c1Cl
4. COc1cc2c(cc1OC)-c1c/c(=N\c3c(C)cc(C)cc3C)n(C)c(=O)n1CC2 [Trequinsin hydrochloride]
5. CC(C)Cn1cnc2c(N)nc3ccccc3c21

**A:**
-80.8
-4.34
-1.87
-3.16
-0.548
